# system_tested: HLA-A*02:01 (Homo sapiens, UniProt P04439, D140Y/D185E/D98H/E176V/E277Q/G131W/G231S/I119V/I121R/I166T/I218V/L300P/L318F/N151K/N90K/P208A/P217A/Q86G/Q94H/R138H/R169H/T345S)
# test_description: MHC binding assay (UV-ligand exchange, beta2m ELISA, peptide exchange yield)
# measurement_conditions: binding to HLA-A*02:01 ranged by peptide exchange yield, β2m ELISA
endpoint: Peptide exchange (MHC class I binding score)

Recorded results for 6 substances are shown here.
>  <substance>
155 (LLLDPDTAVLKL; listed as Homo sapiens) [compound 155]

>  <result>
“+++” (≥50=+++)

$$$$
>  <substance>
160 (VLLPDERTISL; listed as Homo sapiens) [compound 160]

>  <result>
“++++” (>75%=++++)

$$$$
>  <substance>
140 (SLLNPPETLNL; listed as Homo sapiens) [compound 140]

>  <result>
“+++” (≥50=+++)

$$$$
>  <substance>
122 (MQAPRAALVFA; listed as Homo sapiens) [compound 122]

>  <result>
“++++” (>75%=++++)

$$$$
>  <substance>
60 (SLWEDYPHV; listed as Homo sapiens) [compound 60]

>  <result>
“++++” (>75%=++++)

$$$$
>  <substance>
32 (YVDDGLISL; listed as Homo sapiens) [compound 32]

>  <result>
“++” (≥20%=++)

$$$$

input: # get_value(readout='Peptide exchange (MHC class I binding score)', item= 158 (SLIEKYFSV; listed as Homo sapiens) [compound 158] )
output: “++++” (>75%=++++)

input: How about this substance: 136 (KLFPGFEIETV; listed as Homo sapiens) [compound 136]
output: “++++” (>75%=++++)

input: How about this substance: 12 (AQYKFVYQV; listed as Homo sapiens) [compound 12]
output: “+++” (≥50=+++)

input: How about this substance: 110 (ILLTGTPAL; listed as Homo sapiens) [compound 110]
output: “+++” (≥50=+++)

input: How about this substance: 40 (GLAPQIHDL; listed as Homo sapiens) [compound 40]
output: “++” (≥20%=++)

input: How about this substance: 90 (KLLTPITTL; listed as Homo sapiens) [compound 90]
output: “+++” (≥50=+++)

input: How about this substance: 150 (ALFQPHLINV; listed as Homo sapiens) [compound 150]
output: “++++” (>75%=++++)

input: How about this substance: 79 (VVYEGQLISI; listed as Homo sapiens) [compound 79]
output: “+++” (≥50=+++)
